Where do these numbers come from? They come from PubChem BioAssay (NCI).

Test system: LOX IMVI melanoma
Experiment: NCI tumour cell line growth inhibition, 48 h
Task for the reader: assign each of the following molecules its reported GI50.

Qu. What GI50 value was documented for this molecule, C=C(C)C1/C=C(/C(C)C)CC[C@]2(C)O[C@@H]2CC[C@H](C)CC1=O (some centres not stated) ?
Ans. 23300 nM

Qu. What GI50 value was documented for this molecule, "O=C(CCN1CCCC1)Nc1ccc2c(NCCCc3ccccc3)c3ccccc3nc2c1" ?
Ans. 739 nM

Qu. What GI50 value was documented for this molecule, C[C@H]1[C@@H](OCC(CO[C@H]2O[C@@H]3O[C@@]4(C)CC[C@H]5[C@H](C)CC[C@@H]([C@H]2C)[C@@]35OO4)=NOCC(=O)O)OC2O[C@@]3(C)CC[C@H]4[C@H](C)CC[C@@H]1[C@@]24OO3 (some centres not stated) ?
Ans. < 10 nM

Qu. What GI50 value was documented for this molecule, "C[C@@H]1CC[C@@]2(OC1)O[C@H]1C[C@H]3[C@@H]4CC=C5C[C@@H](O[C@@H]6O[C@H](CO)[C@@H](O[C@@H]7O[C@@H](CO)[C@H](O)[C@H]7O)[C@H](O)[C@H]6O[C@@H]6O[C@@H](C)[C@H](O)[C@@H](O)[C@H]6O)CC[C@]5(C)[C@H]4CC[C@]3(C)[C@H]1[C@@H]2C" ?
Ans. 332 nM

Qu. What GI50 value was documented for this molecule, "COc1ccc(-c2ccc(-c3ccc(C(=N)N)cn3)s2)cc1Cl" ?
Ans. 1630 nM

Qu. What GI50 value was documented for this molecule, "COc1ccc(/C=C2\N=C3SC=C(N)N3C2=O)cc1" ?
Ans. 964 nM

Qu. What GI50 value was documented for this molecule, CN(Cc1cnc2nc(N)nc(N)c2n1)c1ccc(C(=O)NC(CCC(=O)O)C(=O)O)cc1 (configuration not stated) ?
Ans. 37.2 nM

###

System: KM12 colon
Assay: NCI tumour cell line growth inhibition, 48 h
Task for the reader: assign each of the following molecules its reported GI50.

Qu. What GI50 value was documented for this molecule, "O=C(/C=C/c1cccc(Cl)c1)c1ccc(Cl)cc1Cl" ?
Ans. 9.76 µM

Qu. What GI50 value was documented for this molecule, "COc1ccc2c3c(c(OCCCN(C)C)nc2c1)-c1ccc(Cl)cc1C3=O" ?
Ans. 4.01 µM

Qu. What GI50 value was documented for this molecule, CC[C@H](C)[C@H](NC(=O)C12C3C4C1C1C2C3C41NC(C)=O)C(=O)N(C)[C@H](C[C@@H](OC(C)=O)c1nc(C(=O)N[C@@H](Cc2ccccc2)C[C@H](C)C(=O)OC)cs1)C(C)C (some centres undefined) ?
Ans. 0.471 µM

Qu. What GI50 value was documented for this molecule, Cn1cnc([N+](=O)[O-])c1Sc1ncnc2c1ncn2C1OC(CO)C(O)C1O (centres undefined) ?
Ans. 6.34 µM

###

Task for the reader: assign each of the following molecules its reported log10 TGI.
System: A498 renal
Assay: NCI tumour cell line growth inhibition, 48 h
Plainly stated, the numbers are log10 of TGI given in µM.

Qu. What log10 TGI value was documented for this molecule, "O=c1[nH]c(-c2ccc(C(F)(F)F)cc2)nc2c1CSCC2" ?
Ans. 1.99

Qu. What log10 TGI value was documented for this molecule, "CC1(C)CCc2c(c(N=Nc3ccccc3)c3ccccc3c2O)O1" ?
Ans. 1.64

Qu. What log10 TGI value was documented for this molecule, NC(CSC(c1ccccc1)(c1ccccc1)c1ccc2ccccc2c1)C(=O)O (stereo unspecified) ?
Ans. 0.58

Qu. What log10 TGI value was documented for this molecule, COc1cc(C2C(C#N)=C(N)OC3=C2C(=O)c2ccccc2C3=O)cc(OC)c1OC (stereo unspecified) ?
Ans. 1.07

Qu. What log10 TGI value was documented for this molecule, "COc1ccc(/C=C2\COc3ccc(-c4ccccc4)cc3C2=O)cc1O" ?
Ans. 0.79

Qu. What log10 TGI value was documented for this molecule, Fc1ccccc1C1CC(C(c2ccccc2)c2ccccc2)=Nc2ccccc2S1 (stereo unspecified) ?
Ans. 1.30

Qu. What log10 TGI value was documented for this molecule, "c1ccc(-c2nc(N3CCNCC3)c3nc(-c4ccccc4)oc3n2)cc1" ?
Ans. 0.44

Qu. What log10 TGI value was documented for this molecule, "C[C@@H]1CC[C@@]2(OC1)O[C@H]1C[C@H]3[C@@H]4CC=C5C[C@@H](O[C@@H]6O[C@H](CO)[C@@H](O[C@@H]7O[C@@H](CO)[C@H](O)[C@H]7O)[C@H](O)[C@H]6O[C@@H]6O[C@@H](C)[C@H](O)[C@@H](O)[C@H]6O)CC[C@]5(C)[C@H]4CC[C@]3(C)[C@H]1[C@@H]2C" ?
Ans. 0.41

Qu. What log10 TGI value was documented for this molecule, "COc1ccc(/C=C\c2cc(OC)c(OC)c(OC)c2)c(NS(=O)(=O)c2ccc(C)cc2)c1O" ?
Ans. -1.09

Qu. What log10 TGI value was documented for this molecule, "CCN(CC)CCNc1ccc(C)c2sc3ccc(O)cc3c(=O)c12" ?
Ans. 0.63

Qu. What log10 TGI value was documented for this molecule, CCC1(OC(C)=O)C(=O)OCc2c1cc1n(c2=O)Cc2cc3ccccc3nc2-1 (stereo unspecified) ?
Ans. 1.41

###

System: TK-10 renal
Experiment: NCI tumour cell line growth inhibition, 48 h
Task for the reader: assign each of the following compounds its reported TGI.

Qu. What TGI value was documented for this compound, "COc1ccc(O)c2c1C(=O)CCCC2=O" ?
Ans. > 100 µM

Qu. What TGI value was documented for this compound, "Nc1c(C(=O)c2ccccc2)[nH]c(NCc2ccccc2)c1C(=S)Nc1ccccc1" ?
Ans. > 100 µM

Qu. What TGI value was documented for this compound, "C/C(=N\Nc1ccc([N+](=O)[O-])cc1)C(=O)N(C)Nc1ccccc1" ?
Ans. > 100 µM

Qu. What TGI value was documented for this compound, "CC1(C)CC(=O)c2c(nc3ccc4ccccc4c3c2-c2ccc(NC(=O)CCCCC(=O)Nc3ccc(-c4c5c(nc6ccc7ccccc7c46)CC(C)(C)CC5=O)cc3)cc2)C1" ?
Ans. > 100 µM

Qu. What TGI value was documented for this compound, CCC1(C)N=C(C(N)=O)c2ncn(N=C(C)C)c2N1 (centres undefined) ?
Ans. > 100 µM

Qu. What TGI value was documented for this compound, COc1cc(C2C(C#N)=C(N)OC3=C2C(=O)c2ccccc2C3=O)cc(OC)c1OC (centres undefined) ?
Ans. > 100 µM

Qu. What TGI value was documented for this compound, "COC1=C(OC)CCC(/C(C#N)=C/c2ccc(OC)c(OC)c2)=C1" ?
Ans. 98 µM

Qu. What TGI value was documented for this compound, CC(=O)c1cccc(NC2C(N)C(NC(=O)N(C)C)(C(C)O)C(C)(O)C2(O)COC(=O)c2c(C)cccc2O)c1 (centres undefined) ?
Ans. 0.118 µM

Qu. What TGI value was documented for this compound, "COc1cc(C2C(C(=O)Nc3ccccc3)=C(C)NC(C)=C2C(=O)Nc2ccccc2)ccc1O" ?
Ans. > 100 µM

Qu. What TGI value was documented for this compound, "O=C1C(c2ccccc2)=C(c2ccccc2)C(c2ccc(CCCCCCc3ccc(C4=C(c5ccccc5)C(=O)C(c5ccccc5)=C4c4ccccc4)cc3)cc2)=C1c1ccccc1" ?
Ans. > 100 µM

Qu. What TGI value was documented for this compound, "COc1ccc(-c2ccc(-c3ccc(C(=N)N)cn3)s2)cc1Cl" ?
Ans. 3.41 µM

Qu. What TGI value was documented for this compound, "CCOC(=O)C(C)(C)Oc1ccc2c(-c3ccc(Cl)cc3)cc(=O)oc2c1" ?
Ans. > 100 µM

Qu. What TGI value was documented for this compound, Cc1cccc2c1C(=O)C(C1OC(=O)c3ccccc31)C2 (centres undefined) ?
Ans. > 100 µM

Qu. What TGI value was documented for this compound, "COC(=O)CCCCC/C(=C\C(=O)C(Cl)(Cl)Cl)OC" ?
Ans. 86.9 µM

Qu. What TGI value was documented for this compound, C=C1C(C)C2C(Cc3ccccc3)NC(=O)C23C(OC(C)=O)/C=C/C(C)(O)CC(C)C/C=C/C3C1O (centres undefined) ?
Ans. > 54.5 µM

Qu. What TGI value was documented for this compound, "c1ccc(-c2cc(-c3cc(-c4ccccc4)n(-c4ccccc4)n3)nn2-c2ccccc2)cc1" ?
Ans. > 100 µM

Qu. What TGI value was documented for this compound, CCOC(=O)C12CC1(C(=O)OCC)C1CCC2C1 (centres undefined) ?
Ans. > 100 µM

Qu. What TGI value was documented for this compound, "O=C(CCN1CCCC1)Nc1ccc2c(NCCCc3ccccc3)c3ccccc3nc2c1" ?
Ans. 3.41 µM

Qu. What TGI value was documented for this compound, COC(=O)C1(Cc2cccc(Cl)c2)CCCCCCN1C(=O)c1ccccc1 (centres undefined) ?
Ans. 29.5 µM
